Entries and their herbicide rating (0-9)
tested on: Sicklepod, Cassia obtusifolia; test: Preemergence herbicidal evaluation, CASOB; assay type: in vivo, L.; settings: 0.2500 kg/ha
Just the number.

Would you please look over these solved cases?
molecule=COC(=O)COc1noc2ccc(-n3c(=O)cc(C(F)(F)F)n(C)c3=O)cc12 recorded_number=9.0
molecule=CCc1ccc(-c2nsc3ccc(-n4c(=O)cc(C(F)(F)F)n(C)c4=O)cc23)cc1 recorded_number=9.0

Measured herbicide rating (0-9) of Cc1noc2cc(F)c(-n3c(=O)cc(C(F)(F)F)n(C)c3=O)cc12 : 9.0

====

tested on: Barnyardgrass, Echinochloa crus-galli; experiment: Postemergence herbicidal evaluation, ECHCG; format: in vivo, (L.) Beau; details: 0.0630 kg/ha
endpoint-name: herbicide rating (0-9)
Just the number.

compound="C#CC(C)OC(=O)COc1ccc(C)cc1-c1nsc2ccc(-n3c(=O)cc(C(F)(F)F)n(C)c3=O)cc12 (centres unmarked)" recorded_number=9.0

Measured herbicide rating (0-9) of COC(=O)COc1ccc(C)cc1-c1nsc2ccc(-n3c(=O)cc(C(F)(F)F)n(C)c3=O)cc12 : 9.0

Measured herbicide rating (0-9) of COc1ccc(C)cc1-c1nsc2ccc(-n3c(=O)cc(C(F)(F)F)n(C)c3=O)cc12 : 7.0

Measured herbicide rating (0-9) of C=CCOC(=O)COc1ccc(C)cc1-c1nsc2ccc(-n3c(=O)cc(C(F)(F)F)n(C)c3=O)cc12 : 9.0

====

Test system: Barnyardgrass, Echinochloa crus-galli
Assay: Postemergence herbicidal evaluation, ECHCG
Assay type: in vivo, (L.) Beau
Details: 0.0630 kg/ha
Description: In the tests, seedling plants are grown in jiffy flats for about two weeks. The test compounds are dispersed in 50/50 acetone/water mixtures containing 0.5% TWEEN®20, a polyoxyethylene sorbitan monolaurate surfactant of Atlas Chemical Industries, in sufficient quantities to provide the equivalent of about 0.0157 kg to 0.500 kg per hectare of active compound when applied to the plants through a spray nozzle operating at 40 psi for a predetermined time. […]
Entries and their herbicide rating (0-9)
Just the number.

Would you please look over these solved cases?
molecule="Cc1ccc(OCC(=O)OCCCl)c(-c2nsc3ccc(-n4c(=O)cc(C(F)(F)F)n(C)c4=O)cc23)c1 [Compound 71]" recorded_number=9.0
molecule="CC#CC(C)OC(=O)COc1ccc(C)cc1-c1nsc2ccc(-n3c(=O)cc(C(F)(F)F)n(C)c3=O)cc12 (stereo not shown) [Compound 76]" recorded_number=9.0
molecule="Cc1ccc(OCC(=O)OC(C)C(C)(C)C)c(-c2nsc3ccc(-n4c(=O)cc(C(F)(F)F)n(C)c4=O)cc23)c1 (stereo not shown) [Compound 85]" recorded_number=7.0

# input for lookup
Measured herbicide rating (0-9) of C#CCOC(=O)C(C)Oc1ccc(C)cc1-c1nsc2ccc(-n3c(=O)cc(C(F)(F)F)n(C)c3=O)cc12 (stereo not shown) [Compound 77] : 9.0
